All values here come from patent US10723699B2.

Biological target: G protein-coupled receptor 119 (GPR-119) (Mesocricetus auratus, UniProt A0A1U8CD06)
Construct: hamster-derived β-cells containing G protein-coupled receptor 119 (GPR-119), HIT-T15 cells; host or cells: HIT-T15 (hamster pancreatic β-cells)
Sequence (A0A1U8CD06 1-334): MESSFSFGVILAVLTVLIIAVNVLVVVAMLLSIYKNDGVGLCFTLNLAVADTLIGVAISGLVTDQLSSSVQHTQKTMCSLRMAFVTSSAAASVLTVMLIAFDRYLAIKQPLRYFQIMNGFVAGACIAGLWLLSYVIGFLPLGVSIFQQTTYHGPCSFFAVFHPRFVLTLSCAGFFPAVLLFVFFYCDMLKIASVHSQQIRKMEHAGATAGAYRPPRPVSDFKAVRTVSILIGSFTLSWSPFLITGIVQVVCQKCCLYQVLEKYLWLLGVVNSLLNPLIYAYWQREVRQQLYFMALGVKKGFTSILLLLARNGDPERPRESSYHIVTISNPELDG
Experiment: cAMP activity in HIT-T15 cells (cAMP dynamic kit, FRET)
Format: cell-based, hamster
Conditions: 1 hour at 37° C., six concentrations 0.0032 to 10 μM, read-out: EC50
READOUT KIND: pEC50
// field semantics: pEC50 = negative decimal log of concentration (mol/L)

CC(C)OC(=O)N1CCC(COc2ccc(C3=CCC(C(=O)N4CCCC4)CC3)cc2F)CC1 (centres unmarked): 7.47
CCc1cnc(N2CCC(COc3ccc(C4=CCC(C(=O)N5CCC(C#N)CC5)CC4)c(F)c3)CC2)nc1 (centres unmarked): 7.68

What does the record list as pEC50 for CCc1cnc(N2CCC(COc3ccc(C4=CCC(C(=O)NCCO)CC4)cc3F)CC2)nc1 (centres unmarked) [Example 313] ?
6.92

Cool, now CCN1CCN(C(=O)C2CC=C(c3ccc(OCC4CCN(c5nc(C(C)C)no5)CC4)c(F)c3)CC2)CC1 (centres unmarked) [Example 346]
7.00

Cool, now CCc1cnc(N2CCC(COc3ccc(C4=CCC(C(=O)N5CCC(N6CCCCC6)CC5)CC4)cc3F)CC2)nc1 (centres unmarked)
6.92

Cool, now CCc1cnc(N2CCC(COc3ccc(C4=CCC(C(=O)N5CCC[C@@H]5CO)CC4)cc3)CC2)nc1 (single isomer, unassigned; (+)) [Example 290]
8.42

Cool, now CC(C)c1noc(N2CCC(COc3ccc(C4=CCC(C(=O)N5CCSCC5)CC4)cn3)CC2)n1 (centres unmarked)
7.42

Cool, now CCc1cnc(N2CCC(COc3ccc(C4=CCC(C(=O)N5CCCCC5)CC4)cn3)CC2)nc1 (centres unmarked)
7.28

Cool, now CCc1cnc(N2CCC(COc3ccc(C4=CCC(C(=O)N5CCN(C(=O)NC(C)C)CC5)CC4)cc3)CC2)nc1 (centres unmarked)
7.60

Cool, now CC(C)c1noc(N2CCC(COc3ccc(C4=CCC(C(=O)N5CCCCC5)CC4)cn3)CC2)n1 (centres unmarked)
7.43

Cool, now CCc1cnc(N2CCC(COc3ccc(C4=CCC(C(=O)N5CCC(O)CC5)CC4)c(F)c3)CC2)nc1 (centres unmarked)
7.57

Cool, now O=C(C1CC=C(c2ccc(OCC3CCN(C(=O)C4(C(F)(F)F)CCCC4)CC3)c(F)c2)CC1)N1CCCC1 (centres unmarked)
7.21

Cool, now O=C(NCCO)C1CC=C(c2ccc(OCC3CCN(c4ncc(Br)cn4)CC3)cc2)CC1 (centres unmarked)
6.82

Cool, now CCc1cnc(N2CCC(COc3ccc(C4=CCC(C(=O)N5CCOCC5)CC4)c(F)c3)CC2)nc1 (centres unmarked)
7.74

====

target: G protein-coupled receptor 119 (GPR-119) (Mesocricetus auratus); construct: hamster-derived β-cells containing G protein-coupled receptor 119 (GPR-119), HIT-T15 cells; host or cells: HIT-T15 (hamster pancreatic β-cells); experiment: cAMP activity in HIT-T15 cells (cAMP dynamic kit, FRET); type: cell-based, hamster; conditions: 1 hour at 37° C., six concentrations 0.0032 to 10 μM, read-out: EC50
Measured EC50 values are reported for all entries that follow.
// note: answer is a bare numeric in nM

In the examples that follow, each entry is paired with its recorded EC50.
CCc1cnc(N2CCC(COc3ccc(C4=CCC(C(=O)N5CCN(C)CC5)CC4)cc3F)CC2)nc1 (stereo not shown) [Example 384]: 100
CCc1cnc(N2CCC(COc3ccc(C4=CCC(C(=O)N5CCOCC5)CC4)cc3F)CC2)nc1 (stereo not shown): 12

What does the record list as EC50 for CCc1cnc(N2CCC(COc3ccc(C4=CCC(C(=O)NCC(C)(C)CO)CC4)cc3F)CC2)nc1 (stereo not shown) ?
20

Cool, now CCc1cnc(N2CCC(COc3ccc(C4=CCC(C(=O)NC5CCCCC5)CC4)cc3F)CC2)nc1 (stereo not shown)
24
